target: human SGLT2 (Homo sapiens); construct: A full-length cDNA clone expressing human SGLT2; test: Methyl-α-D-[U-14C]glucopyranoside uptake assay in HEK293.ETN cells stably expressing human SGLT2; assay type: cell-based; settings: without human serum (symbols without parentheses); 1.5 h incubation
Sequence (P31639 whole entry): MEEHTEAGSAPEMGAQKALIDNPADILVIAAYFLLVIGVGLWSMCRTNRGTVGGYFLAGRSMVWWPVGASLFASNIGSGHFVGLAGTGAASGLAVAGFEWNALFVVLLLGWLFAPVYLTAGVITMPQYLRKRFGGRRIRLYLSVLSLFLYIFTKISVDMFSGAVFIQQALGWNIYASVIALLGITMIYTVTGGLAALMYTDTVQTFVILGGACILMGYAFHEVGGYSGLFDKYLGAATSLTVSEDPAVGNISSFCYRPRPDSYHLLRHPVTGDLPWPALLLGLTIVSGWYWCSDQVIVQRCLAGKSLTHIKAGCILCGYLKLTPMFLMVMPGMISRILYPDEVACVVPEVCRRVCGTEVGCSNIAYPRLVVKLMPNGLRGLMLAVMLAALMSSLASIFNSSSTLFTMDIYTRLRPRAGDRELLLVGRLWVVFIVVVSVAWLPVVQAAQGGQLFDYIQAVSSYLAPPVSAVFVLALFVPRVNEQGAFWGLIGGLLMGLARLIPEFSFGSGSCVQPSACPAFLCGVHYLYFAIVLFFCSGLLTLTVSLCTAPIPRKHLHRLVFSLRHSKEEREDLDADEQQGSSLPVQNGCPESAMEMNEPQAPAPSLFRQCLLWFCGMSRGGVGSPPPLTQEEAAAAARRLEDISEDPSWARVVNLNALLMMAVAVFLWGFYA
ASSAY METRIC: IC50

Guide cases for IC50, answers given:
OC[C@H]1O[C@@H](c2ccc(Cl)c(Cc3ccc(OCCOCC(F)F)cc3)c2)[C@H](O)[C@@H](O)[C@@H]1O | < 1000 nM
COCCOCCOc1ccc(Cc2cc([C@@H]3O[C@H](CO)[C@@H](O)[C@H](O)[C@H]3O)ccc2Cl)cc1 | < 1000 nM

Here is the next item to consider.
For OC[C@H]1O[C@@H](c2ccc(Cl)c(Cc3ccc(OCCOCCF)cc3)c2)[C@H](O)[C@@H](O)[C@@H]1O , what is its reported IC50?
< 1000 nM

---

Biological target: human SGLT1 (Homo sapiens, UniProt P13866)
Construct: Full-length human SGLT1 cDNA on pDream2.1 expression vector; host or cells: COS-7 cells (American Type Culture Collection)
Assay: Methyl-α-D-[U-14C]glucopyranoside uptake assay in COS-7 cells expressing human SGLT1
Format: cell-based
Conditions: incubation with 25% human serum (symbols in parentheses); 2 h incubation
Experimental: Full-length human SGLT1 cDNA on pDream2.1 expression vector was obtained from GenScript Corporation and propagated in Escherichia coli strain DH5α using Luria-Bertani (LB) medium containing ampicillin. Plasmid DNA was isolated using the QIAGEN Plasmid Midi Kit (QIAGEN Inc.). […] Transfected cells were stored in DMEM containing 10% dimethyl sulfoxide (DMSO) at −80° C. […]
Quick reference for IC50 among some compounds

OC[C@H]1O[C@@H](c2ccc(Cl)c(Cc3ccc(OCCOCCN4CCCC4)cc3)c2)[C@H](O)[C@@H](O)[C@@H]1O | 1 to 10 µM
OC[C@H]1O[C@@H](c2ccc(Cl)c(Cc3ccc(OCC#CC4CC4)cc3)c2)[C@H](O)[C@@H](O)[C@@H]1O | > 10 µM
C#CCOCC(C)Oc1ccc(Cc2cc([C@@H]3O[C@H](CO)[C@@H](O)[C@H](O)[C@H]3O)ccc2Cl)cc1 (stereo partly drawn) | > 10 µM
OC[C@H]1O[C@@H](c2ccc(Cl)c(Cc3ccc(COC4CC4)cc3)c2)[C@H](O)[C@@H](O)[C@@H]1O | > 10 µM
OC[C@H]1O[C@@H](c2ccc(Cl)c(Cc3ccc(CCCOC4CC4)cc3)c2)[C@H](O)[C@@H](O)[C@@H]1O | 1 to 10 µM

For COCC#CCOc1ccc(Cc2cc([C@@H]3O[C@H](CO)[C@@H](O)[C@H](O)[C@H]3O)ccc2Cl)cc1 , what is its reported IC50?
> 10 µM

---

Molecular target: human SGLT1 (Homo sapiens, UniProt P13866)
Construct: Full-length human SGLT1 cDNA on pDream2.1 expression vector; host or cells: COS-7 cells (American Type Culture Collection)
Sequence (P13866 1-664): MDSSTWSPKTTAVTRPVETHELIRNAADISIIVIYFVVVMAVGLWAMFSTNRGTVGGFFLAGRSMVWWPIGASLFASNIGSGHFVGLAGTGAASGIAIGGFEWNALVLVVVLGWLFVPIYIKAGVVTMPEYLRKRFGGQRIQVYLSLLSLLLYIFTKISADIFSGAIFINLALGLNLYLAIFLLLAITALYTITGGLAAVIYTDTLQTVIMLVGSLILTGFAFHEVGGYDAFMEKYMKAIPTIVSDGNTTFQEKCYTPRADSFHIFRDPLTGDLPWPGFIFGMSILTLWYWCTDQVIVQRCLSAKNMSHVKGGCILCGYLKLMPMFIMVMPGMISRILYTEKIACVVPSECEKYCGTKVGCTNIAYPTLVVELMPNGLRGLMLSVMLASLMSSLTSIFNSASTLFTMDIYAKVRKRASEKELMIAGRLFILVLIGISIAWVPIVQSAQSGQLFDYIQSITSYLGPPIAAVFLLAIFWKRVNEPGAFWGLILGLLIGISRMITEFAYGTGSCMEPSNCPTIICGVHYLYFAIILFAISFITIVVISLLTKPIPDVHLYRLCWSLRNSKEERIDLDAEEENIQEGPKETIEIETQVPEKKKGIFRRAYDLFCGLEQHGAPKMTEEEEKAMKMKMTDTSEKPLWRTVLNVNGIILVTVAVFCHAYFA
Test: Methyl-α-D-[U-14C]glucopyranoside uptake assay in COS-7 cells expressing human SGLT1
Type: cell-based
Conditions: without human serum (symbols without parentheses); 2 h incubation
Quick reference for IC50 among some molecules

Guide cases for IC50, answers given:
OC[C@H]1O[C@@H](c2ccc(Cl)c(Cc3ccc(OCCOCC(F)F)cc3)c2)[C@H](O)[C@@H](O)[C@@H]1O | 1 to 10 µM
OC[C@H]1O[C@@H](c2ccc(Cl)c(Cc3ccc(OCCOCCF)cc3)c2)[C@H](O)[C@@H](O)[C@@H]1O | 1 to 10 µM

Here is the next item to consider.
For COCCOCCOc1ccc(Cc2cc([C@@H]3O[C@H](CO)[C@@H](O)[C@H](O)[C@H]3O)ccc2Cl)cc1 , what is its reported IC50?
1 to 10 µM
